Known IC50 of a selection of molecules
Test system: Target C
Assay: HiBiT protein abundance assay, Target C HiBiT K562 cell line
Format: cell-based
Conditions: Homo sapiens; HiBiT lytic detection, modified K562 cells, 24 hours, top dose 10 μM; read-out: Effect on protein abundance, Target C (IC50)

Examples from the recorded data:
Cn1cc2cc(-c3ncc4c(=O)n(C56CCC(N)(CC5)C6)ccc4n3)c(O)cc2n1: 1 to 10 µM
Cc1cn2nc(-c3ccc4c(=O)n(C5CCN(CCF)CC5)ncc4n3)cc(C)c2n1: 0.1 to 1 µM
Cc1cn2nc(-c3ccc4c(=O)n(C5CCN(CC6CC6)C6(CC6)C5)ncc4n3)cc(C)c2n1 (stereo not shown): 0.1 to 1 µM

# input for lookup
**Q:** # query: IC50 of entry Cc1cc(-c2ccc3ncn(C4CCNCC4)c(=O)c3c2)cc2cn(C)nc12
**A:** > 10 µM

---

Known IC50 of a selection of compounds
Test system: Target C
Assay: RT-qPCR splicing assay panel, Target C canonical junction (CJ) mRNA
Type: cell-based, human
Details: Homo sapiens; canonical junction qPCR panel, Table 5; read-out: Target C (decrease in CJ mRNA levels, IC50)

Examples from the recorded data:
CCN1CC[C@@H](n2ncc3nc(-c4cc(C)c5nc(C)cn5n4)ccc3c2=O)CC12CC2 [Compound 1530]: < 0.1 µM
Cn1cc2cc(-c3ccc4c(=O)n([C@@H]5CCNC5)ccc4n3)c(O)c(F)c2n1 [Compound 1452]: 0.1 to 1 µM
Cc1cc(-c2ccc3c(=O)[nH]c(N4CCNCC4)nc3c2)cc2cn(C)nc12 [Compound 2211]: > 10 µM
Cn1cc2cc(-n3cnc4ccc(N5CCNCC5)cc4c3=O)cc(F)c2n1 [Compound 2196]: > 10 µM
Cc1cn2cc(-c3ccc4c(=O)n(C56CCC(N)(CC5)C6)ccc4n3)cc(F)c2n1 [Compound 1492]: 1 to 10 µM

**Q:** # query: IC50 of entry Cc1cn2cc(-c3ncc4c(=O)n([C@H]5CCN[C@H](C)C5)ccc4n3)cc(F)c2n1 [Compound 1490]
**A:** 0.1 to 1 µM

**Q:** # query: IC50 of entry Cc1cn2nc(-n3cnc4ccc(N5CCNCC5)cc4c3=O)cc(C)c2n1 [Compound 2201]
**A:** > 10 µM

**Q:** # query: IC50 of entry CNC12CCC(n3ccc4nc(-c5cc6cn(C)nc6c(C)c5O)ccc4c3=O)(CC1)C2 [Compound 1522]
**A:** 0.1 to 1 µM

---

Tested on: HTT
Assay: HiBiT protein abundance assay, HTT HiBiT K562 cell line
Format: cell-based, human
Details: HiBiT K562 cell line, 24 hours, top dose 10 μM; read-out: Effect on protein abundance, HTT (IC50 category)
measurement kind: IC50

Examples from the recorded data:
Cc1cn2nc(-c3ccc4c(=O)c(C5CCNCC5)cn(C)c4c3)cc(C)c2n1: 1000 to 10000 nM
Cc1cn2cc(-c3ccc4c(c3)CCN(C3CCNCC3)C4=O)c(C)cc2n1: 1000 to 10000 nM
Cc1cn2nc(-c3cc(O)c4c(=O)n([C@H]5CCNC6(CC6)C5)ncc4c3)cc(C)c2n1: < 100 nM

**Q:** # query: IC50 of entry Cc1nc2c(F)cc(-c3ccc4c(=O)n(C5CCN(C)CC5)cnc4c3)cc2o1
**A:** 100 to 1000 nM

**Q:** # query: IC50 of entry Cc1c(O)c(-c2ccc3c(=O)n(C4CCNCC4)cnc3n2)cc2cn(C)nc12
**A:** 100 to 1000 nM

**Q:** # query: IC50 of entry Cc1c(O)c(-c2ccc3c(=O)n(C4CC(C)NC(C)C4)ccc3n2)cc2cn(C)nc12 (centres unmarked)
**A:** 100 to 1000 nM

**Q:** # query: IC50 of entry Cc1cn2nc(-c3ccc4c(=O)n([C@H]5CCNC6(CC6)C5)cnc4c3)cc(C)c2n1
**A:** 100 to 1000 nM

**Q:** # query: IC50 of entry Cc1cn2nc(-c3ccc4c(=O)n(C5CCN(C)CC5)cnc4c3)cc(C)c2n1
**A:** 1000 to 10000 nM

**Q:** # query: IC50 of entry Cc1cn2cc(-c3cc4ccn(C5CCNCC5)c(=O)c4cn3)nc(C)c2n1
**A:** 100 to 1000 nM

**Q:** # query: IC50 of entry Cc1c(O)c(-c2ncc3c(=O)n(C4CCNC(C)(C)C4)ccc3n2)cc2cn(C)nc12 (centres unmarked)
**A:** 100 to 1000 nM

---

System: K562 (human chronic myelogenous leukemia) cells
Assay: Cell Titer Glo 2.0 cell viability assay
Type: cell-based
Details: Homo sapiens, K562, 72 h, K562 cells, 72 hours, Cell Titer Glo 2.0; read-out: K562 GI50
measurement kind: GI50

Cc1c(O)c(-c2cc(F)c3c(=O)n(C4CCNC5(CC5)C4)ccc3c2)cc2cn(C)nc12 (centres unmarked) [Compound 419]: > 10000 nM
Cc1cn2cc(-c3ccc4c(=O)n([C@@H]5CCCNC5)ccc4c3)cc(F)c2n1 (single isomer, unassigned) [Compound 403]: 1000 to 10000 nM
Cc1nc2c(o1)CN(c1cc(F)c3c(=O)n(C4CCNCC4)cnc3c1)CC2 [Compound 508, trifluoroacetic acid]: > 10000 nM
Cc1c(O)c(-c2ncc3c(=O)n(C45CCC(N)(CC4)CC5)ccc3n2)cc2cn(C)nc12 [Compound 1323]: < 100 nM
Cc1nc2c(F)cc(-c3ccc4c(=O)n(C5CCNCC5)ncc4c3)cc2o1 [Compound 250]: < 100 nM
Cc1cn2cc(-c3cc(F)c4c(=O)n([C@H]5CNC[C@@H]5F)ccc4c3)cc(F)c2n1 [Compound 644]: 1000 to 10000 nM
CC(=O)c1cc(-c2cc(F)c3c(=O)n(C4CCNCC4)ccc3c2)cn2cc(C)nc12 [Compound 393, 2,2,2-trifluoroacetate]: 100 to 1000 nM
Cc1cn2cc(-n3cnc4ccc(N(C)C5CCNCC5)cc4c3=O)cc(F)c2n1 [Compound 2200]: > 10000 nM

**Q:** What GI50 appears in the records for this molecule with K562 (human chronic myelogenous leukemia) cells? Cc1c(O)c(-c2ncc3c(=O)n(C4C[C@@H](C)N[C@H](C)C4)ccc3n2)cc2cn(C)nc12 (some centres unmarked) [Compound 1454]
**A:** 100 to 1000 nM

---

Tested on: SMN2 mRNA
Assay: RT-qPCR splicing assay, SMN2 canonical junction (CJ) mRNA
Type: cell-based, human
Settings: Homo sapiens; Table 5 panel; canonical junction qPCR; compound concentration having 50% response in CJ decrease; read-out: SMN2 IC50 (decrease in CJ mRNA levels)
Known IC50 of a selection of compounds

Examples from the recorded data:
Cc1cn2nc(-c3ccc4c(=O)n(C5CCNCC5)ccc4c3)cc(CC#N)c2n1: < 100 nM
Cc1cc(-c2cc3ccn(C4CCNCC4)c(=O)c3cn2)cc2cn(C)nc12: < 100 nM
Cc1cn2cc(-c3cc(F)c4c(=O)n([C@H]5CCNC[C@H]5F)cnc4c3)cc(F)c2n1: < 100 nM
Cc1cn2nc(-c3ccc4c(=O)n([C@H]5CCN(C)[C@H](C)C5)ncc4c3)cc(C)c2n1: < 100 nM
Cc1cn2nc(-c3ccc4c(=O)n(C5CCNCC5)cnc4c3)nc2c(C)n1: < 100 nM
Cc1cc(-c2ccc3c(=O)n(C4CCN(C)CC4)cnc3n2)cc2cn(C)nc12: 1000 to 10000 nM
CCc1cn(C2CCNCC2)c(=O)c2c(F)cc(-c3cc(F)c4nc(C)cn4c3)cc12: < 100 nM
Cc1cn2nc(-c3ccc4c(=O)n(C5CCNCC5)cnc4c3)cc2c(C)n1: < 100 nM
Cc1cn2cc(-c3ccc4c(=O)n(C5CCNCC5)ccc4c3)cc(C#N)c2n1: < 100 nM
Cc1cn2cc(-c3cc(F)c4c(=O)n(C5CCNCC5)cnc4c3)cc(C#N)c2n1: < 100 nM

**Q:** # query: IC50 of entry Cc1cn2nc(-c3cc(F)c4c(=O)n([C@H]5CCN(C)C6(CC6)C5)ncc4c3)cc(C)c2n1
**A:** < 100 nM

**Q:** # query: IC50 of entry Cc1cn2cc(-c3cc(F)c4c(=O)n(C5CCNCC5)ccc4c3)cc(C#N)c2n1
**A:** < 100 nM

**Q:** # query: IC50 of entry Cc1cn2nc(-c3ccc4c(=O)n(C5CCNCC5)cnc4c3)cc(C)c2n1
**A:** < 100 nM

---

Tested on: MYB mRNA
Experiment: RT-qPCR splicing assay, MYB canonical junction (CJ) and alternative junction (AJ) mRNA
Type: cell-based, human
Settings: Homo sapiens; increase in MYB alternative junction (AJ) mRNA, RT-qPCR; read-out: MYB AJ AC50
measurement kind: AC50

Examples from the recorded data:
Cc1c(O)c(-c2ncc3c(=O)n(C4CCNCC4)cc(C)c3n2)cc2cn(C)nc12: < 100 nM
Cc1cn2cc(-c3ccc4c(=O)n(C5CCNCC5)ccc4n3)cc(C#N)c2n1: 100 to 1000 nM
Cc1cn2cc(-c3ccc4c(c3)CCN(C3CCNCC3)C4=O)cc(C)c2n1: 1000 to 10000 nM
CCN1CCC(n2ncc3cc(-c4cc(C)c5nc(C)cn5n4)cc(F)c3c2=O)CC1: 100 to 1000 nM
Cc1cn2nc(-c3ccc4c(=O)n(C5CCNCC5)ncc4n3)cc(C)c2n1: < 100 nM

**Q:** What AC50 appears in the records for this molecule with MYB mRNA? Cc1cn2cc(-c3nc(C)c4c(=O)n(C5CCNCC5)ccc4n3)cc(F)c2n1
**A:** 100 to 1000 nM

**Q:** What AC50 appears in the records for this molecule with MYB mRNA? Cc1cn2nc(-c3ccc4c(=O)n([C@H]5CCN(C)C6(CC6)C5)ncc4n3)cc(C)c2n1
**A:** 100 to 1000 nM

**Q:** What AC50 appears in the records for this molecule with MYB mRNA? Cc1cn2nc(-c3ccc4c(=O)n(C5CCN(C)CC5)cnc4c3)cc(C)c2n1
**A:** 100 to 1000 nM

Provenance of the data: patent US20250332173A1
